system: MDA-MB-231 breast cancer cell line; test: MTT cytotoxicity assay, MDA-MB-231; format: cell-based; details: Homo sapiens, MDA-MB-231, read-out: IC50 (μg mL^−1) ± SD MDA-MB231
Parameter measured: IC50 (µg/mL)
# value in µg/mL; strip the unit string

[
  {
    "Molecule": "CN1C(=S)N(c2ccccc2)C(=O)/C1=C1/C(=O)N(C)c2ccc(Cl)cc21 [Compound 12]",
    "Endpoint unit": "µg/mL",
    "Value observed": 27.3
  },
  {
    "Molecule": "CCc1ccc(N2C(=O)/C(=C3/C(=O)N(C)c4ccc(Cl)cc43)NC2=S)cc1 [Compound 9]",
    "Endpoint unit": "µg/mL",
    "Value observed": 28.4
  },
  {
    "Molecule": "CN1C(=O)/C(=N\\Nc2ncc(-c3cc4ccccc4oc3=O)s2)c2cc(Cl)ccc21 [Compound 5]",
    "Endpoint unit": "µg/mL",
    "Value observed": 14.4
  }
]

Kindly review the next molecule as well.
Field request: IC50 | item: COc1cccc2c1C(=O)c1c(O)c3c(c(O)c1C2=O)C[C@@](O)(C(=O)CO)C[C@@H]3O[C@H]1C[C@H](N)[C@H](O)[C@H](C)O1 [Doxorubicin, reference compound]
36.6
